Listed here: items and their measured IC50.
# test.system: Kv1.3 potassium channel (Homo sapiens)
# Construct: expressed in transfected cells
# test.description: Kv1.3 potassium channel blocker activity, automated whole-cell patch clamp (Patchliner)
# Assay type: cell-based
# experimental.conditions: CHO-K1 cells stably expressing Kv1.3; whole cell current inhibition; read-out: Kv1.3_IC50

[[record]]
compound = "N[C@@H](c1cc(Cl)c(Cl)cc1O)C1CCN(C(=O)[C@H]2CCNC2)CC1 (single isomer, unassigned) [Compound 85]"
test_system = "Kv1.3 potassium channel (Homo sapiens)"
value_observed = "< 500 nM"


Query the reported IC50 for Kv1.3 potassium channel (Homo sapiens); item: O=C([C@@H]1CCNC1)N1CCC([C@H](O)c2cc(Cl)c(Cl)cc2O)CC1 (single isomer, unassigned) [Compound 115] < 500 nM

Query the reported IC50 for Kv1.3 potassium channel (Homo sapiens); item: CC(=O)NC(c1cc(Cl)c(Cl)cc1O)C1CCNCC1 (stereo not shown) [Compound 11] < 10000 nM

Query the reported IC50 for Kv1.3 potassium channel (Homo sapiens); item: Cc1cc(O)c([C@H](N)C2CCN(S(=O)(=O)C3CCNC3)CC2)cc1Cl (stereo partly shown) [Compound 236, Trifluoroacetic Acid] < 500 nM

Query the reported IC50 for Kv1.3 potassium channel (Homo sapiens); item: C[C@H]1C[C@H]([C@@H](N)c2cc(Cl)c(Cl)cc2O)CCN1C(=O)[C@H](O)CO [Compound 326, Trifluoroacetic Acid] < 500 nM

Query the reported IC50 for Kv1.3 potassium channel (Homo sapiens); item: Cc1cc(O)c([C@H](N)C2CCN(C(=O)c3ccc4[nH]c(=O)[nH]c4c3)CC2)cc1Cl [Compound 256, trifluoroacetic acid] < 500 nM

Query the reported IC50 for Kv1.3 potassium channel (Homo sapiens); item: Cc1cc(O)c([C@H](N)C2CCN(C(=O)[C@H](O)CO)CC2)cc1C [Compound 293, Trifluoroacetic Acid] < 500 nM

====

# test.system: Kv1.3 potassium channel (Homo sapiens, UniProt P22001)
# Sequence (P22001 whole entry): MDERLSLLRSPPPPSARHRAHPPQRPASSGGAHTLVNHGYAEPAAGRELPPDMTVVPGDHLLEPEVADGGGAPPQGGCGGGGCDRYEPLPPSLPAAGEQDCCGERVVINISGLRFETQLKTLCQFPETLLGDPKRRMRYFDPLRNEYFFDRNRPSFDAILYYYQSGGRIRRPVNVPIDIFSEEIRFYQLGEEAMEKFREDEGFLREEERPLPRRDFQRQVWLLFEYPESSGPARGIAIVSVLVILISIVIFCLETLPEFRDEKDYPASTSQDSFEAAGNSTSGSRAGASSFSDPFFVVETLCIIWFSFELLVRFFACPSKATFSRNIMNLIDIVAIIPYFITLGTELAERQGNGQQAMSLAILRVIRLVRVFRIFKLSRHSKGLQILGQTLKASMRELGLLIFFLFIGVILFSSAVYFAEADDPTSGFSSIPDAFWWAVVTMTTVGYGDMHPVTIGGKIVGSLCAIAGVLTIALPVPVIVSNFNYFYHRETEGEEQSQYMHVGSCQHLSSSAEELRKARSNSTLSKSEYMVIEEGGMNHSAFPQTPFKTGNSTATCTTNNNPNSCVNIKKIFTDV
# test.description: Kv1.3 potassium channel blocker activity, automated whole-cell patch clamp (Patchliner)
# experimental.conditions: CHO-K1 cells stably expressing Kv1.3; whole cell current inhibition; read-out: Kv1.3_IC50
pIC50: −log10 of the molar value.
property: pIC50

Examples with their reported pIC50 follow.
[[record]]
compound = "N[C@@H](c1cc(Cl)c(Cl)cc1O)C1CCN(C(=O)NCCO)CC1"
property = "pIC50"
value_observed = "> 6.30"

[[record]]
compound = "Cc1cc(O)c([C@H](N)C2CCN(C(=O)c3c[nH]c(=O)c(C)c3)CC2)cc1Cl"
property = "pIC50"
value_observed = "> 6.30"

[[record]]
compound = "N[C@@H](c1cc(Cl)c(C2CC2)cc1O)C1CCN(C(=O)[C@H](O)CO)CC1"
property = "pIC50"
value_observed = "> 6.30"


Given the compound CC(=O)N1CCC(C(c2cc(Cl)c(Cl)cc2O)N2CCCC2)CC1 (stereo not shown) , what is its reported pIC50? > 5.00

Given the compound O=S(=O)([C@H]1CCNC1)N1CCC([C@H](O)c2cc(Cl)c(Cl)cc2O)CC1 (single isomer, unassigned; isomer 3) , what is its reported pIC50? > 6.30

Given the compound N[C@@H](c1cc(Cl)c(Cl)cc1O)C1CCN(C(=O)C2CCNC(=O)C2)CC1 (stereo partly shown) , what is its reported pIC50? > 5.00

Given the compound CC(O)(CO)C(=O)N1CCC([C@@H](N)c2cc(Cl)c(Cl)cc2O)CC1 (stereo partly shown) , what is its reported pIC50? > 5.00

Each recorded value in this set is attributed to patent US20230023559A1.
